Every entry's value here was drawn from patent US4921847A.

Tested on: S180 ascites
Assay: Anti-tumor evaluation against S180 ascites in mice (% increase in life span, survivors)
Format: in vivo, female CFW Swiss mice
Details: S 180 ascites; 20 mg/kg
Measured Attribute: % ILS (%)
Numeric answer only, unit % assumed.

Check out these entries, answers already filled in.
{"Molecular String": "O=C(O)c1ccc[n+]([Au-]([Br])([Br])[Br])c1", "Observed Measurement": 26}
{"Molecular String": "Oc1ccc[n+]([Au-]([Cl])([Cl])[Cl])c1", "Observed Measurement": 39}
{"Molecular String": "O=C(O)Cc1ccc[n+]([Au-]([Cl])([Cl])[Cl])c1", "Observed Measurement": -15}
{"Molecular String": "[Cl][Au]([Cl])[Cl].c1ccncc1", "Observed Measurement": 71}
{"Molecular String": "O=C(O)Cc1ccc[n+]([Au-]([Br])([Br])[Br])c1", "Observed Measurement": 20}
{"Molecular String": "OCc1ccc[n+]([Au-]([Cl])([Cl])[Cl])c1", "Observed Measurement": 63}
{"Molecular String": "CC(=O)c1ccc[n+]([Au-]([Cl])([Cl])[Cl])c1", "Observed Measurement": 42}
{"Molecular String": "Cn1cc[n+]([Au-]([Br])([Br])[Br])c1", "Observed Measurement": 76}

**Q:** Which value of % ILS has been reported for `Cn1cc[n+]([Au-]([Cl])([Cl])[Cl])c1` in the records?
**A:** 33

**Q:** Same read-out for `[Cl][Au-]([Cl])([Cl])[n+]1cc[nH]c1` ?
**A:** 1

**Q:** Now the compound `O=C(O)c1ccc[n+]([Au-]([Cl])([Cl])[Cl])c1`
**A:** 60

====

compounds and their reported Maximum % ILS (Dosage)
System: Sarcoma 180 tumors
Experiment: Therapeutic index (LD50/ED90), implanted Sarcoma 180 tumors
Type: in vivo, Swiss white mice
Settings: S 180 ascites; 40 mg/kg
Your answer is read as %, so omit the unit and give the number.

{"Molecular String": "O=C(O)Cc1ccc[n+]([Au-]([Cl])([Cl])[Cl])c1", "Target Entity": "Sarcoma 180 tumors", "Maximum % ILS (Dosage), %": 63}
{"Molecular String": "OCc1ccc[n+]([Au-]([Cl])([Cl])[Cl])c1", "Target Entity": "Sarcoma 180 tumors", "Maximum % ILS (Dosage), %": 85}
{"Molecular String": "Oc1ccc[n+]([Au-]([Cl])([Cl])[Cl])c1", "Target Entity": "Sarcoma 180 tumors", "Maximum % ILS (Dosage), %": 61}
{"Molecular String": "Cn1cc[n+]([Au-]([Cl])([Cl])[Cl])c1", "Target Entity": "Sarcoma 180 tumors", "Maximum % ILS (Dosage), %": 91}

API: the following record is the query input.
**Q:** Need Maximum % ILS (Dosage) of `CC(=O)c1ccc[n+]([Au-]([Cl])([Cl])[Cl])c1` , thanks.
**A:** 97

====

Test system: S180 ascites
Assay: Anti-tumor evaluation against S180 ascites in mice (% increase in life span, survivors)
Type: in vivo, female CFW Swiss mice
Conditions: S 180 ascites; 160 mg/kg
Below, each entry is listed alongside its reported % ILS.
Respond numerically; units are % and should not be typed.

{"Compound": "O=C(O)c1ccc[n+]([Au-]([Br])([Br])[Br])c1 [Example 10]", "Units Text": "%", "% ILS": -19}
{"Compound": "O=C(O)Cc1ccc[n+]([Au-]([Cl])([Cl])[Cl])c1 [Example 4, trichloro(3-pyridyacetic acid)gold(III)]", "Units Text": "%", "% ILS": -41}
{"Compound": "O=C(O)Cc1ccc[n+]([Au-]([Br])([Br])[Br])c1 [Example 11, tribromo(3-pyridylacetic acid)gold(III)]", "Units Text": "%", "% ILS": -21}

**Q:** For the compound shown here, Oc1ccc[n+]([Au-]([Cl])([Cl])[Cl])c1 [Example 5] , give the reported % ILS.
**A:** -36

**Q:** What would you report for O=C(O)c1ccc[n+]([Au-]([Cl])([Cl])[Cl])c1 [Example 1, Trichloro(Nicotinic Acid)Gold(III)] ?
**A:** 1

**Q:** // query: OCc1ccc[n+]([Au-]([Cl])([Cl])[Cl])c1 [Example 6]
**A:** -70
